# assay_details: Hole mobility rate of the hole transporting material
# Format: physicochemical
# conditions_used: hole transporting layer material
As shown below, each of these compounds has a reported hole mobility rate value.

Record excerpt, results attached:
Reported hole mobility rate, compound c1ccc(-c2ccc(N(c3ccc(-c4ccccc4)cc3)c3ccc(N(c4ccc(-c5ccccc5)cc4)c4ccc(-c5ccccc5)cc4)cc3)cc2)cc1 [Com. Example 4] : ____ 2×10^−4 cm^2/V·S

Same thing, different compound: c1ccc(-c2ccc(N(c3ccc(-c4ccccc4)cc3)c3ccc(-c4ccc(N(c5ccc(-c6ccccc6)cc5)c5ccc(-c6ccccc6)cc5)c5c4CCCC5)cc3)cc2)cc1 [Com. Example 3] 7×10^−5 cm^2/V·S

Input c1ccc(-c2ccc(N(c3ccc(-c4ccccc4)cc3)c3ccc(-c4ccc(N(c5ccc(-c6ccccc6)cc5)c5ccc(-c6ccccc6)cc5)cc4)cc3)cc2)cc1 [Com. Example 1] 3×10^−4 cm^2/V·S

And then Cc1cccc(-c2ccc(N(c3ccc(-c4cccc5c4CCCC5)cc3)c3ccc(-c4ccc(N(c5ccc(-c6cccc(C)c6)cc5)c5ccc(-c6cccc7c6CCCC7)cc5)c5c4CCCC5)cc3)cc2)c1 [Example 2] , what is it? 2.1×10^−4 cm^2/V·S

Again, but for Cc1ccc(-c2ccc(N(c3ccc(-c4ccccc4)cc3)c3ccc(-c4ccc(N(c5ccc(-c6ccccc6)cc5)c5ccc(-c6ccc(C)cc6)cc5)c5c4CCCC5)cc3)cc2)cc1 [Example 1] 0.00041 cm²/(V·s)

Now give it for Cc1ccccc1-c1ccc(N(c2ccc(-c3ccccc3)cc2)c2ccc(-c3ccc(N(c4ccc(-c5ccccc5)cc4)c4ccc(-c5ccccc5C)c5c4CCCC5)c4c3CCCC4)cc2)c2c1CCCC2 [Example 4] too. 1.9×10^−4 cm^2/V·S

Further cases:
Quick check: hole mobility rate of Cc1ccc(-c2ccc(N(c3ccc(-c4ccccc4)cc3)c3ccc(-c4ccc(N(c5ccc(-c6ccccc6)cc5)c5ccc(-c6ccc(C)cc6)cc5)cc4)cc3)cc2)cc1 [Com. Example 2] ? 3.5×10^−4 cm^2/V·S

Then what about the compound Cc1cc(N(c2ccc(-c3ccccc3)cc2)c2ccc(-c3cccc4c3CCCC4)cc2)ccc1-c1ccc(N(c2ccc(-c3ccccc3)cc2)c2ccc(-c3cccc4c3CCCC4)cc2)cc1 [Example 3] ? 1.8×10^−4 cm^2/V·S
